Tm overview
Experiment: Thermal stability (Protein Thermal Shift assay)
Assay type: physicochemical
Settings: VHH domains, first derivative analysis
Number first, unit second.

molecule	Tm
F12: ALPP targeting VHH domain, SEQ ID NO: 37 (protein) VHH: QVQLVESGGGLVEAGGSLRLSCAVSGSALSDYNIGWFRQAPGKEREFVARKTWDGSSTKYDDSVKGRFTVSIDNAKNTAYLQMNSLKTEDTAVYYCAAGRYSRVRGWEYDYWGQRTQVTVSS	62.9 °C
D04: ALPP/ALPPL2 targeting VHH domain, SEQ ID NO: 26 (protein) VHH: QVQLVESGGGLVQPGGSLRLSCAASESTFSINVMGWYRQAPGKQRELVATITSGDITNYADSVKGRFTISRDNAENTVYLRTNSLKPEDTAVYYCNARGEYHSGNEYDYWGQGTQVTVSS	59.8 °C
E12: ALPP targeting VHH domain, SEQ ID NO: 33 (protein) VHH: QVQLVESGGGSVQAGGSLRLSCAASGPSISNFAMGWFRQAPGKEREFVAGISWGGGRTNYLDSVKGRFTISRDNAKNMVHLQMNSLKPEDTTVYYCAGRYGRGRDVEYEYDYWGQGTQVTVSS	55.5 °C

Problem: Please report the measured Tm for A06: ALPP/ALPPL2 targeting VHH domain, SEQ ID NO: 17; tested C-terminally His-tagged (protein, C-terminal His tag, tested C-terminally His-tagged) VHH: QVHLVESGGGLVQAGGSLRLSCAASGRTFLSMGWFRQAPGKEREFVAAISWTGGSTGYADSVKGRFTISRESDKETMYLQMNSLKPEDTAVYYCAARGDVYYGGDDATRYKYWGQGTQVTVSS
Solution: 73.2 °C
